Read-out: E-selectin (Homo sapiens) (UniProt P16581)
Sequence (P16581 whole entry, looked up): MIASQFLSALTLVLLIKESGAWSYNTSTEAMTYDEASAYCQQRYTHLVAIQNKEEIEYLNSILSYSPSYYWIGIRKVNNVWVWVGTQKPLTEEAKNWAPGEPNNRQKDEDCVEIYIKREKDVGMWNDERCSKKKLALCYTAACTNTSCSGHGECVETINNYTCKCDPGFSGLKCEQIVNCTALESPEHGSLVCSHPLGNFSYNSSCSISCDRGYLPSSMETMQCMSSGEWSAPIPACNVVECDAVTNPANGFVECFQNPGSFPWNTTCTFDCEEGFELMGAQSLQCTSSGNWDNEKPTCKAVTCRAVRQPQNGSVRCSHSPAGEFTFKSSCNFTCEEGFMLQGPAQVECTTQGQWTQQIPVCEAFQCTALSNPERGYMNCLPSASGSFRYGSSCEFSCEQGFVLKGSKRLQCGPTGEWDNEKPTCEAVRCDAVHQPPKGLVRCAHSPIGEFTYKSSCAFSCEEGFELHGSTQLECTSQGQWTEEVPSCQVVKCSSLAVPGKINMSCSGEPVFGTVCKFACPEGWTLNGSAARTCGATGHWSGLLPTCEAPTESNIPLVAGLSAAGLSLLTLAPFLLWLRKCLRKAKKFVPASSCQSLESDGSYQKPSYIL
Assay: BSK_3C_Eselectin: BioMAP Diversity Plus: 3C Assay for Eselectin Biomarker Activity (AID 2283015);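 as to outcome: cell surface E-selectin protein quantified by ELISA 24 h after dosing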
Conditions: primary human endothelial cells (HUVEC); actives raise or lower the signal
The source made the active and inactive calls. The calls were made as follows: active = hit-call score of the fitted dose curve at least 0.9, where 1 is the maximum; inactive = score below 0.9.
Log the outcome using a class from true (1) for active, false (0) for inactive

Use the examples below as a reference point.
| Molecule | Class Label |
| --- | --- |
| CC(C)(N=C=O)c1cccc(C(C)(C)N=C=O)c1 | false (0) |
| c1ccc(Oc2ccccc2)cc1 | true (1) |
| CN(C)C(=O)Nc1ccc(Oc2ccc(Cl)cc2)cc1 | true (1) |
| C=C(C)C(=O)OCCOCCOCCOC(=O)C(=C)C | false (0) |
| C=CC(C)(O)CCC=C(C)C (stereo not drawn) | false (0) |

What is the recorded call for this molecule in the test? "O=CN1CCOCC1"
false (0)

====

Assay: ATG_TGFb_CIS: Attagene CIS-FACTORIAL HepG2 Assay for human Transforming Growth Factor (TGF) (AID 2282967)
Conditions: HepG2 Attagene CIS TGFb reporter, mRNA transcription; actives raise or lower the signal
Active and inactive are the calls of the source. The calls were made as follows: active = hit-call score of the fitted dose curve at least 0.9, where 1 is the maximum; inactive = score below 0.9.
Permitted responses: active, inactive

Consider the worked cases shown below.
| Compound | Class Label |
| --- | --- |
| CC(=O)c1c(C)c([N+](=O)[O-])c(C(C)(C)C)c([N+](=O)[O-])c1C | active |
| C=C[Si]1(C)O[Si](C)(C=C)O[Si](C)(C=C)O[Si](C)(C=C)O1 (configuration not stated) | inactive |
| C=CC(=O)OCCC#N | inactive |

// outcome(item) with item = "COS(=O)(=O)O"
inactive

In this assay, the call recorded for "COc1ccc(CCC(C)=O)cc1" was what?
inactive

What did the test return for "C=Cc1ccc(C(C)(C)C)cc1" ?
inactive

Just curious, what result did "Nc1ccccc1[N+](=O)[O-]" get here?
inactive

What outcome does the record of this test show for "ON=C1CCCCC1" ?
inactive

// param item: "OCCc1ccccc1" ; yields the recorded call
inactive

Query: recorded result category for "CCc1ccc(O)c(OC)c1" in this test
inactive

Call for entry "C=C1C[C@]23C[C@@]1(O)CC[C@H]2[C@@]12C=C[C@H](O)[C@@](C)(C(=O)O1)[C@H]2[C@@H]3C(=O)O" :
inactive

====

Read-out: E-selectin (Homo sapiens) (UniProt P16581)
Experiment: BSK_SAg_Eselectin: BioMAP Diversity Plus: SAg Assay for Eselectin Biomarker Activity (AID 2283091)
Details: primary human HUVEC with PBMC; actives raise or lower the signal
The source made the active and inactive calls. How the source made its calls: active means hit-call score of the fitted dose curve at least 0.9, where 1 is the maximum; inactive means score below 0.9.
Measure: AC50

| Compound | AC50 |
| --- | --- |
| C=C(C)[C@H]1CC=C(C)C(=O)C1 | inactive |
| CCN(CC)C(=O)N(CC)CC | inactive |
| CCCCN(CCCC)C(=O)N(CCCC)CCCC | 9.94 µM (active) |
| C=CC(C)(O)CCC=C(C)C (centres undefined) | inactive |

// input: 5 compounds below; output: AC50 for each
1. c1ccc2cc(Nc3ccc(Nc4ccc5ccccc5c4)cc3)ccc2c1
2. CCCCCCCCCCCCCCCC(=O)OC/C=C(C)/C=C/C=C(C)/C=C/C1=C(C)CCCC1(C)C
3. CC(=O)c1c(C)c([N+](=O)[O-])c(C(C)(C)C)c([N+](=O)[O-])c1C
4. CN(C)C(=S)SC(=S)N(C)C
5. CCCCOC(=O)CCCCCCCC(=O)OCCCC

inactive
inactive
inactive
inactive
inactive

Parameters: items (list). Returns: AC50 for each item.
1. CCC(C)c1cc([N+](=O)[O-])cc([N+](=O)[O-])c1OC(=O)OC(C)C (centres undefined)
2. COc1cc(Cl)c(OC)cc1N
3. CC(C=O)Cc1ccc(C(C)(C)C)cc1 (centres undefined)
4. O=C1OC2(c3ccccc31)c1ccc(O)c(Br)c1Oc1c2ccc(O)c1Br
5. CC(=O)C1(C)CC2=C(CCCC2(C)C)CC1C (centres undefined)
6. O=C1c2ccccc2C(=O)c2c(O)ccc(O)c21

1. 12.2 µM (active)
2. inactive
3. inactive
4. 26 µM (active)
5. 15.5 µM (active)
6. 1.21 µM (active)

Lab note: each compound below needs its AC50 filled in.
1. O=C1OC[C@H](Cc2cccc(O)c2)[C@H]1Cc1cccc(O)c1
2. CN(C)C(=O)Nc1ccc(Oc2ccc(Cl)cc2)cc1
3. CCCCCC(C=O)=Cc1ccccc1
4. Oc1c(Cl)cc(Cl)c(Cl)c1Cc1c(O)c(Cl)cc(Cl)c1Cl

["inactive", "inactive", "inactive", "3.17 µM (active)"]
